System: PjTRPA1
Construct: gene TRPA1; full-length in pcDNA3.1(+)-mCherry, HEK293T cells
Assay: Fluo-4 calcium flux in transfected HEK293T cells
Assay type: cell-based, Propylea japonica
Conditions: agonist; DMSO as negative control
readout.label: pEC50
Answers are plain numbers, as −log10 of the molar value.

Input: Give the reported value of pEC50 for this record: CC1=COC(=O)C2C(C)CCC12 (stereo not shown) [nepetalactone]
Output: 3.89
